compounds and their reported inhibition at 50 µM
# Test system: human IL-6
# METHOD DESCRIPTION: Inhibition of IL-6 production by stimulated human peripheral blood leukocytes in vitro (ELISA)
# Type: cell-based
# MEASUREMENT SETUP: Homo sapiens, Leukocyte, PBL, PMA stimulation, compound 50 μM; read-out: Percentage of inhibition of IL-6 production
Please respond with the number in % and leave the unit unwritten.

C=CC(=O)O[C@H]1[C@H](C)[C@@H](O[C@@H]2O[C@H](C)C[C@H](N(C)C)[C@H]2O)[C@](C)(OC)C[C@@H](C)C(=O)[C@H](C)[C@@H](O)[C@](C)(O)[C@@H](CC)OC(=O)[C@@H]1C [Example 4]
100

Let's switch to this compound now.
Q: Give inhibition at 50 µM for this entry on human IL-6: CC[C@H]1OC(=O)[C@H](C)[C@@H](OC(=O)CCN(C)CCO)[C@H](C)[C@@H](O[C@@H]2O[C@H](C)C[C@H](N(C)C)[C@H]2O)[C@](C)(OC)C[C@@H](C)C(=O)N[C@H](C)[C@@H](O)[C@]1(C)O [Example 23]
A: 92

====

# Tested on: A549
# Assay type: cell-based
# MEASUREMENT SETUP: human, 24 h, 50 μM
compounds and their reported Percentage of viable cells after treatment

CC[C@H]1OC(=O)[C@H](C)[C@@H](OC(=O)CCN(CC)CC)[C@H](C)[C@@H](O[C@@H]2O[C@H](C)C[C@H](N(C)C)[C@H]2O)[C@](C)(OC)C[C@@H](C)C(=O)[C@H](C)[C@@H](O)[C@]1(C)O [Example 5]
100%
CC[C@H]1OC(=O)[C@H](C)[C@@H](OC(=O)CCN(C)CCO)[C@H](C)[C@@H](O[C@@H]2O[C@H](C)C[C@H](N(C)C)[C@H]2O)[C@](C)(OC)C[C@@H](C)C(=O)N[C@H](C)[C@@H](O)[C@]1(C)O [Example 23]
>95%
CC[C@H]1OC(=O)[C@H](C)[C@@H](OC(=O)CCN2CCCN(CCCN3CCCC3)CC2)[C@H](C)[C@@H](O[C@@H]2O[C@H](C)C[C@H](N(C)C)[C@H]2O)[C@](C)(OC)C[C@@H](C)C(=O)N[C@H](C)[C@@H](O)[C@]1(C)O [Example 24]
>90%
C=CC(=O)O[C@H]1[C@H](C)[C@@H](O[C@@H]2O[C@H](C)C[C@H](N(C)C)[C@H]2O)[C@](C)(OC)C[C@@H](C)C(=O)[C@H](C)[C@@H](O)[C@](C)(O)[C@@H](CC)OC(=O)[C@@H]1C [Example 4]
>95%
CC[C@H]1OC(=O)[C@H](C)[C@@H](OC(=O)CCN(CC)CC)[C@H](C)[C@@H](O[C@@H]2O[C@H](C)C[C@H](N(C)C)C2O)[C@](C)(O)C[C@@H](C)CN(C)[C@H](C)[C@@H](O)[C@]1(C)O (stereo in doubt) [Example 12]
>90%

Let's switch to this compound now.
Q: Item CC[C@H]1OC(=O)[C@H](C)[C@@H](O[C@H]2C[C@@](C)(OC)[C@@H](O)[C@H](C)O2)[C@H](C)[C@@H](O[C@@H]2O[C@H](C)C[C@H](N(C)C)[C@H]2O)[C@](C)(O)C[C@@H](C)CN(C)[C@H](C)[C@@H](O)[C@]1(C)O [azithromycin, reference compound] : provide Percentage of viable cells after treatment
A: 100%
